Experiment: Time required to reach maximum plasma concentration in rat after oral administration at 10 mg/kg dosage
Type: ADME, organism-based
Design: dose 10 mg/kg, route oral
test_readout: Tmax (h)
Report the value in h with no unit label.

# example entries with known answers
{"compound": "CN1CCc2cc(Cl)c3[nH]c(=O)sc3c2[C@H]2c3ccccc3CC[C@@H]21", "measurement_unit": "h", "Tmax": 2}
{"compound": "CN1CCc2cc(Cl)c3[nH]c(O)nc3c2[C@H]2c3ccccc3CC[C@@H]21", "measurement_unit": "h", "Tmax": 1}
{"compound": "O=c1[nH]c2c(Cl)cc3c(c2s1)[C@H]1c2ccccc2CC[C@@H]1NCC3", "measurement_unit": "h", "Tmax": 1}
{"compound": "CN1CCc2cc(Cl)c3[nH]ncc3c2[C@@H](c2ccccc2)C1", "measurement_unit": "h", "Tmax": 2}
{"compound": "CN1CCc2cc(Cl)c(O)cc2[C@H]2c3ccccc3CC[C@@H]21 [ECOPIPAM]", "measurement_unit": "h", "Tmax": 0.5}

For the next question, use this compound.
Exercise: State the recorded Tmax for this entry: "Oc1nc2c(Cl)cc3c(c2[nH]1)[C@H]1c2ccccc2CC[C@@H]1NCC3"
Key: 6
